- systemName: T1, human soluble urokinase plasminogen activator receptor (suPAR) (human, UniProt Q03405 23-303, limits assumed)
- T1 construct: Target antigen of the off-rate screen; also called hsuPAR; human suPAR
- T1 sequence (Q03405 23-303 limits assumed): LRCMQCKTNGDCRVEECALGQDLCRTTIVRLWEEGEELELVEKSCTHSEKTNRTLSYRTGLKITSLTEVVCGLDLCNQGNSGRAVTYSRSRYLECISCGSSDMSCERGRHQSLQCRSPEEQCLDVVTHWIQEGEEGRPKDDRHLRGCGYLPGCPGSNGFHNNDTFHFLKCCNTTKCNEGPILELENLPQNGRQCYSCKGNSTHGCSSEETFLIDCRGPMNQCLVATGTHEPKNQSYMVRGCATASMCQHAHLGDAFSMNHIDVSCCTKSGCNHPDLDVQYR
- testProtocol: off-rate (kdis) screen of scFv clones, biosensor (Octet)
assayReadout: koff (s⁻¹)
Write the value in s⁻¹ as a bare number.

Some binders with recorded koff:
binder	koff [s⁻¹]
suPAR_DB01_B10 (scFv, V domains shown, screened as scFv) VH: QVQLVQSGAEVKKPGASVKVSCKASGYTFSSYYMHWVRQAPGQGLEWMGWIDPENGSTIYDQKFQGRVTMTRDTSTSTVYMELSSLRSEDTAVYYCARGYDVDWFVYWGQGTLVTVSS VL: DIQMTQSPSSLSASVGDRVTITCSARQSVSSMYWYQQKPGKAPKLLIYRTSNLASGVPSRFSGSGSGTDFTLTISSLQPEDFATYYCQQYHSYPPTFGGGTKVEIK	0.00105
suPAR_DB01_D02 (scFv, V domains shown, screened as scFv) VH: QVQLVQSGAEVKKPGASVKVSCKASGYTFTSYYMHWVRQAPGQGLEWMGWIDPNTGDTNYAQKFQGRVTMTRDTSTSTVYMELSSLRSEDTAVYYCARGYDVDWFVYWGQGTLVTVSS VL: DIQMTQSPSSLSASVGDRVTITCRARSSVSYMYWYQQKPGKAPKLLIYRTSNLASGVPSRFSGSGSGTDFTLTISSLQPEDFATYYCQQYHSYPPTFGGGTKVEIK	0.00425

# input binder: suPAR_DB01_B12 (scFv, V domains shown, screened as scFv) VH: QVQLVQSGAEVKKPGASVKVSCKASGYTFTSYYMHWVRQAPGQGLEWMGWIDPENGNTIYDQKFQGRVTMTRDTSTSTVYMELSSLRSEDTAVYYCARGYDVDWFVYWGQGTLVTVSS VL: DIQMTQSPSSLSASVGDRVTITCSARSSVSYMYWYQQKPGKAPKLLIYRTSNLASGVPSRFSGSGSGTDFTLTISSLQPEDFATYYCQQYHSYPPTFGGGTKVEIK ; wanted: its koff 0.00298
